Measured protein stability index, listed per entry.
experiment: protein stability index of a GFP-peptide fusion (GPS, HEK-293T) (PSI 1-6); higher = more stable; settings: treatment: MLN4924 1 uM, 8 h; c terminus: a fixed tail appended;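 also: 24-mer peptide tiles fused after GFP, lentivirally expressed, FACS-sorted into six equal bins by GFP/DsRed ratio, decoded by Illumina sequencing, PSI is the read-weighted mean bin number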
Field format: numeric only.

Q: Query: protein stability index; subject: LVFLELAQFHCAYQLADWCLHHIC [RHOBTB2]
A: 2.98

Q: Query: protein stability index; subject: KDGMAFQEALDPGPFDQGSPFAQE [ELF3]
A: 4.94

Q: Query: protein stability index; subject: GVKISEQQAEKILKSMDKNGTMTI [SLC25A25]
A: 3.7

Q: Query: protein stability index; subject: EDEEEEEGENYQKGERGEDSSEEK [CHGB]
A: 5.66

###

experiment: protein stability index of a GFP-peptide fusion (GPS, HEK-293T) (PSI 1-6); higher = more stable; conditions: treatment: MLN4924 1 uM, 8 h; c terminus: a fixed tail appended
Measured protein stability index, listed per entry.

Sample records with protein stability index:
ADILAGREDNSGSDVLIGDILVLL [SLC35F2]: 2.43
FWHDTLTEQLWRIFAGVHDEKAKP [TLE6]: 2.41
MAVRPSLPESGLLSVLQIAQQDLA [FANCE]: 3.53
AGFAQLTHLLMGLAGGKLILSLEG [HDAC6]: 3.05
LRIFVWLLLLYFMQVIAIVLYLMM [PHTF1]: 2.75
HRTHTGERPYGCDECEKAYFYMSC [ZNF649]: 2.54

Q: Query: protein stability index; subject: EKLCSISLSHINAYACLVCGKYFQ [USP39]
A: 2.61

###

experiment: protein stability index of a GFP-peptide fusion (GPS, HEK-293T) (PSI 1-6); higher = more stable; conditions: treatment: DMSO; c terminus: a fixed tail appended
Measured attribute: protein stability index
Field format: numeric only.

Sample records with protein stability index:
GGIRGRAMALTSSMNWGINLLISL [SLC2A12]: 2.26
ATRSTTQSNRTSRLIGKKMNRSVS [WEE1]: 4.27
LQVIYWARDVFIITGVWVFFFNPC [GOSR1]: 2.37
QNRRAKLKRSHRESQFLMAKKNFN [HESX1]: 3.43
VEGRKHVDVQTELYLEEIADRIIE [RSPH3]: 2.55

Q: Query: protein stability index; subject: NLPIIAKMAAVSKASGRFGLLQGT [SEPHS2]
A: 2.31

Q: Query: protein stability index; subject: NGMAIIRPPGHHAQHSLMDGYCMF [HDAC6]
A: 2.37

Q: Query: protein stability index; subject: IPYFITLGTELAERQGNGQQAMSL [KCNA3]
A: 3.03

Q: Query: protein stability index; subject: QIQEFKEAFTLMDQNRDGFIDKED [MYL5]
A: 5.12

Q: Query: protein stability index; subject: TPVIAATPVPTITANVTSVPVPPA [BRD3]
A: 4.53

Q: Query: protein stability index; subject: PVENFFVKCNGALINTSDTVQHGA [SDE2]
A: 3.07

###

assay: protein stability index of a GFP-peptide fusion (GPS, HEK-293T) (PSI 1-6); higher = more stable; conditions: treatment: DMSO; c terminus: a fixed tail appended
Measured protein stability index, listed per entry.
Field format: numeric only.

PDVVVRSFMTWLRSYIKLFQAPCQ [MED27]: 2.06

Q: Query: protein stability index; subject: AKLGTQAEKDRRLKKKHQLLEDAR [PPFIA4]
A: 4.26

Q: Query: protein stability index; subject: AADGPTVCCNPYHFSRLCGPESPP [SMAD6]
A: 3.65

Q: Query: protein stability index; subject: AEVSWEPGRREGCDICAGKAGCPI [RPS21]
A: 3.29

Q: Query: protein stability index; subject: SLLLKKPLRVDLILENTSKVPAPK [NOP53]
A: 2.81
